Here the recorded Covalent modification effect on the estrogen receptor ERα Y537S mutant-type is given for each entry.
test.target: estrogen receptor ERα Y537S mutant-type (Homo sapiens (Human), UniProt P03372, Y537S)
Sequence (P03372 296-554 Y537S): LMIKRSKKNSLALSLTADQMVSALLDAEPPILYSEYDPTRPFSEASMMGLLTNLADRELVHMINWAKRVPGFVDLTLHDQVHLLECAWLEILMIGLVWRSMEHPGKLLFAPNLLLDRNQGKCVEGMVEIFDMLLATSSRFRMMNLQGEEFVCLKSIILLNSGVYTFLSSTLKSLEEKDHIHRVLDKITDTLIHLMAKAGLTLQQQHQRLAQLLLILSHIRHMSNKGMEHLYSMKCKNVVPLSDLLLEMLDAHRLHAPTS
test.summary: Covalent modification of ERα Y537S mutant-type LBD by high-resolution mass spectrometry
Format: binding
setup.conditions: after 24 hours; 2 μM protein, 10 μM compound, 4° C.
measure: Covalent modification effect on the estrogen receptor ERα Y537S mutant-type

> print(dat)
                         compound.structure  recorded.result
1  CN(C)C(=O)/C=C/CN1CCC[C@@H](Oc2ccc(/C(=C(/CC(F)(F)F)c3ccc(C#N)cc3)c3ccc4[nH]nc(F)c4c3)cn2)C1              99%
2  O=C(/C=C/CNC1(COc2ccc(/C(=C(/CC(F)(F)F)c3ccccc3)c3ccc4[nH]nc(F)c4c3)cn2)CC1)N1CCO[C@@H](CO)C1              97%
3  O=C(/C=C/CN1CCC[C@@H](Oc2ccc(/C(=C(/CC(F)(F)F)c3ccccc3)c3ccc4[nH]nc(F)c4c3)cn2)C1)N1CCCC1              96%
4  CN(C)C(=O)/C=C/CN1CCC[C@@H](Oc2ccc(/C(=C(/CC(F)(F)F)c3ccc(C(F)(F)F)cc3)c3ccc4[nH]nc(F)c4c3)cn2)C1             100%
5  O=C(/C=C/CN1CCC[C@@H](Oc2ccc(/C(=C(/CC(F)(F)F)c3ccccc3)c3ccc4[nH]nc(F)c4c3)cn2)C1)N1CCOCC1              83%
6  O=C(/C=C/CNC1(COc2ccc(/C(=C(/CC(F)(F)F)c3ccccc3)c3ccc4[nH]nc(F)c4c3)cn2)CC1)N1CCOCC1              97%

* * *

test.summary: Pharmacokinetics in BALB/C nude mice after intragastric administration
Format: in vivo
setup.conditions: female, mouse, plasma, po, 2 mg/kg, read-out: Clearance rate CL/F
measure: CL/F (mL/min/kg)

> print(dat)
                                   compound  recorded.result
1  CN(C)C(=O)/C=C/CN1CCC[C@@H](Oc2ccc(/C(=C(/CC(F)(F)F)c3ccccc3)c3ccc4[nH]nc(F)c4c3)cn2)C1 [Example 14]              163

* * *

Here the recorded Vd/F is given for each entry.
test.summary: Pharmacokinetics in BALB/C nude mice after intragastric administration
Format: in vivo
setup.conditions: female, mouse, plasma, po, 30 mg/kg, read-out: Apparent volume of distribution Vz/F
measure: Vd/F (L/kg)

> print(dat)
                                   molecule  unit.spec  recorded.result
1  CN(C)C(=O)/C=C/CNC1(COc2ccc(/C(=C(/CC(F)(F)F)c3ccccc3)c3ccc4[nH]nc(F)c4c3)cn2)CC1 [Example 39]       L/kg             2.47
2  O=C(/C=C/CNC1(COc2ccc(/C(=C(/CC(F)(F)F)c3ccccc3)c3ccc4[nH]nc(F)c4c3)cn2)CC1)N1CC[C@H](O)C1 [Example 41]       L/kg             14.4
3  O=C(/C=C/CNC1(COc2ccc(/C(=C(/CC(F)(F)F)c3ccccc3)c3ccc4[nH]nc(F)c4c3)cn2)CC1)N1CCO[C@@H](CO)C1 [Example 42]       L/kg             11.5
4  O=C(/C=C/CN1CCC[C@@H](Oc2ccc(/C(=C(/CC(F)(F)F)c3ccccc3)c3ccc4[nH]nc(F)c4c3)cn2)C1)N1CCCC1 [Example 15]       L/kg             5.87
5  O=C(/C=C/CNC1(COc2ccc(/C(=C(/CC(F)(F)F)c3ccccc3)c3ccc4[nH]nc(F)c4c3)cn2)CC1)N1CCOCC1 [Example 1]       L/kg             8.76
6  O=C(/C=C/CNC1(COc2ccc(/C(=C(/CC(F)(F)F)c3ccccc3)c3ccc4[nH]nc(F)c4c3)cn2)CC1)N1CC(O)C1 [Example 40]       L/kg             4.59
